assay: Cytotoxicity assay (MTT); type: cell-based, monkey; settings: monkey, Vero monkey kidney cells (ATCC CCL-81); Vero cells, 72 hours, MTT; read-out: IC50 (Cytotoxicity): Concentration which reduces viability of Vero kidney cells by 50%
value_kind: IC50 at 72 h (µg/mL)
Reply numerically in µg/mL, unit not repeated.

Below are worked cases with known answers.
CCCCCCCCCCN1C(=O)/C(=C(/C)O)C(=O)[C@H]1CC(C)C [Compound 13o] : 6.3
C/C(O)=C1\C(=O)[C@H](CC(C)C)N(CC2=CCC3CC2C3(C)C)C1=O (stereo partly shown) [Compound 13l] : 35.4
C/C(O)=C1\C(=O)[C@H](CC(C)C)N(Cc2ccc(-c3ccccc3)cc2)C1=O [Compound 13k] : 19.7

We now examine a further molecule.
Lookup result for CCCCCCCCCCN1C(=O)/C(=C(/C)O)C(=O)[C@@H]1Cc1ccccc1 [Compound 13n] ; measured IC50 at 72 h: 21.1
